Collected half-life values appear next to each entry.
method-description: in vitro metabolic stability, murine microsomal assay
Format: in vitro ADME, mouse
run-parameters: mouse, liver microsomes; murine microsomal assay
Quick reminder: number only, in h, skip the unit.

INPUT: Item Oc1c(Br)cc(CN2CCOCC2)c2cccnc12 : provide half-life
OUTPUT: 3.73

INPUT: Item Oc1ccc(CN2CCOCC2)c2cccnc12 : provide half-life
OUTPUT: 0.367

# next molecule below
INPUT: Item COc1ccccc1N1CCN(Cc2cc(Br)c(O)c3ncccc23)CC1 : provide half-life
OUTPUT: 2.27

====

system-tested: EphB1-EphrinB2 (Rattus norvegicus)
Construct: rat EphB1-Fc residues 18-538; mouse EB2-His residues 18-232; purchased R&D Systems (EphB1-Fc); Sino Biologicals (EB2-His)
Sequence (P09759 18-538): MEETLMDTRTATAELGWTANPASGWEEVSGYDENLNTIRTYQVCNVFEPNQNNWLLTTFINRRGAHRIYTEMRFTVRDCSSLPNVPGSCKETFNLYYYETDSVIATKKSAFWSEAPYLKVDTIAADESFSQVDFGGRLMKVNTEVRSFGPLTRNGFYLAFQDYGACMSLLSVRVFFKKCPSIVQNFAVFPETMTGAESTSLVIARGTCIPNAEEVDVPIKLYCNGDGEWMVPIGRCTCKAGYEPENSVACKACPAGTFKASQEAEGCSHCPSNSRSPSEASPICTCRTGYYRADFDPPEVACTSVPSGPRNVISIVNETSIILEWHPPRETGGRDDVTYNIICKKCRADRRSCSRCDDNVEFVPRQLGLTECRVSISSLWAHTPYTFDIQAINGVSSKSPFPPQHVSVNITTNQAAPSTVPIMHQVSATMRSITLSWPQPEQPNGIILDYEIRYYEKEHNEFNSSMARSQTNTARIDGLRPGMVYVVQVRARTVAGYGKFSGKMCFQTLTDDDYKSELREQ
method-description: Octet RED384, immobilized rat EphB1-Fc binding to 30 nM mouse EB2-His (400 sec / 500 sec)
Design: species or system mouse EphrinB2
run-parameters: 100 sec dissociation; read-out: IC50 (response at 100 sec after dissociation step)
quantity-name: IC50 (nM)
Quick reminder: number only, in nM, skip the unit.

INPUT: Item Oc1c(Br)cc(CN2CCOCC2)c2cccnc12 [Compound 6] : provide IC50
OUTPUT: 2400

Values were extracted from patent US20260374739A1.
